Readings of ΔTm for the listed molecules
target: Bromodomain-containing protein 4 (Homo sapiens) (UniProt O60885); details: Compound concentration 20.0 uM, Protein concentration 2.0 uM, Result type QC Liability
Metric Name: ΔTm (°C)

> print(dat)
                                    molecule  metric.name  measure.unit  reported.value
 1  CC(C)(C#Cc1ccc(NC(=O)COc2ccccc2C(=O)c2ccccc2)c(Cl)c1)C(=O)O          ΔTm            °C            0.63
 2  O=C(Nc1ccc(C(O)(C(F)(F)F)C(F)(F)F)cc1)c1ccc(C(F)(F)F)cc1          ΔTm            °C           -1.03
 3            CSc1nc2c(c(=O)n(C)c(=O)n2C)n1C          ΔTm            °C           -3.81
 4  CC1(C)C[C@@H]1C(=O)N/C(=C\CCCCSC[C@H](N)C(=O)O)C(=O)O          ΔTm            °C           -2.05
 5  Cc1nccc(COC(=O)N2C[C@@H]3[C@@H](CNC(=O)c4ccc5[nH]nnc5c4)[C@@H]3C2)n1          ΔTm            °C           -4.78
 6  COc1c(NC(=O)c2cc3cccc(Oc4ccnc(C(=O)N5CCN(C)CC5)c4)c3n2C)cc(C(C)(C)C)cc1NS(C)(=O)=O          ΔTm            °C           -2.76
 7    O=C(O)Cc1cc(I)c(Oc2ccc(O)c(I)c2)c(I)c1          ΔTm            °C           -5.23
 8  COc1cc(-c2cncc(-c3ccc(N4CCN(C(C)C)CC4)cc3)c2C)cc(F)c1C(N)=O          ΔTm            °C            -2.5
 9  N#CN1CC[C@@H](C(=O)Nc2nc3c(s2)CN(C(=O)CN=[N+]=[N-])CC3)C1          ΔTm            °C           -1.95
10  CCN(C(=O)CO)[C@H]1CN(/C(=N\C#N)Nc2cccc(OC(F)F)c2)N=C1c1ccc(Cl)c(Cl)c1          ΔTm            °C             3.5
11  CC(F)(F)CN1C(=O)c2[nH]nc(-c3cccc4[nH]c(=O)oc34)c2C1c1ccc(Oc2cc(C(F)(F)F)cc(C(F)(F)F)c2)cc1 (stereo unspecified)          ΔTm            °C           -1.07

// provenance: ChEMBL document CHEMBL5308504
